# DC50 listing for each entry below
# Test System: ferroportin (Homo sapiens)
# Sequence (Q9NP59 1-571): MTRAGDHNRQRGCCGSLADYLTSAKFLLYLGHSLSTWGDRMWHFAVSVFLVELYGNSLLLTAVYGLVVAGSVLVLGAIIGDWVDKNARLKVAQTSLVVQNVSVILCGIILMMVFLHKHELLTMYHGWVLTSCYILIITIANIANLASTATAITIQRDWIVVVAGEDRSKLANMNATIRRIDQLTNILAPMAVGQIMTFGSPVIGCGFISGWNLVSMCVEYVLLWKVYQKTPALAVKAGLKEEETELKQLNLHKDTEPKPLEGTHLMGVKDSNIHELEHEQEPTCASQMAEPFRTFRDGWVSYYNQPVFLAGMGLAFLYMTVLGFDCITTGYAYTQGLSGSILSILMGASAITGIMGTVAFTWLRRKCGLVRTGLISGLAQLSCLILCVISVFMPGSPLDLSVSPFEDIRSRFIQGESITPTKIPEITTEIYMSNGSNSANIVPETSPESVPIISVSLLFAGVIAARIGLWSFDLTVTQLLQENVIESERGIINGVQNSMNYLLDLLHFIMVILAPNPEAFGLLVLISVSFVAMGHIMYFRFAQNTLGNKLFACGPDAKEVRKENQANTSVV
# Procedure Summary: FPN activity assay: internalization/degradation of ferroportin-GFP in stably transfected HEK293 cells, decrease in GFP fluorescence
# Format: cell-based
# Design: expressed in transfected cells
# Particulars: HEK293 cells stably expressing ferroportin-GFP, at least 18 hours incubation; read-out: FPN EC50
Readout Label: DC50

Structure Notation	Test System	Observed Value
CC[C@H](C)[C@@H]1NC(=O)[C@@H](NC(=O)[C@@H]2CCCN2C(=O)[C@@H](NC(=O)[C@H](Cc2cnc[nH]2)NC(=O)[C@@H](NC(=O)[C@H](CC2N=NN=N2)NC(=O)CC(C)C)[C@@H](C)O)C(c2ccccc2)c2ccccc2)CSSC[C@@H](C(N)=O)NC(=O)[C@@H](CCCCN)NC(=O)C[C@H](Cc2ccccc2)NC(=O)[C@H](CCCCNC(=O)COCCOCCNC(=O)COCCOCCNC(=O)[C@H](CN)NC(=O)CCCCCCCCCCCCCCCCC(=O)O)NC1=O	ferroportin (Homo sapiens)	10 to 100 nM
CC[C@H](C)[C@@H]1NC(=O)[C@@H](NC(=O)[C@@H]2CCCN2C(=O)[C@@H](NC(=O)[C@H](Cc2c[nH]cn2)NC(=O)[C@@H](NC(=O)[C@H](Cc2nn[nH]n2)NC(=O)CCCCN)[C@@H](C)O)C(c2ccccc2)c2ccccc2)CSSC[C@@H](C(N)=O)NC(=O)[C@@H](CCCCN)NC(=O)C[C@H](Cc2ccccc2)NC(=O)[C@H](CCCCNC(=O)COCCOCCNC(=O)COCCOCCNC(=O)CC[C@H](NC(=O)CCCCCCCCCCCCCCCCC(=O)O)C(=O)O)NC1=O	ferroportin (Homo sapiens)	> 500 nM

---

# Test System: ferroportin (Homo sapiens)
# Procedure Summary: FPN activity assay: internalization/degradation of ferroportin-GFP in stably transfected HEK293 cells, decrease in GFP fluorescence
# Format: cell-based
# Parameters: expressed in transfected cells
# Particulars: HEK293 cells stably expressing ferroportin-GFP, at least 18 hours incubation; read-out: FPN EC50

Molecule	DC50
CC[C@H](C)[C@@H]1NC(=O)[C@@H](NC(=O)[C@@H]2CCCN2C(=O)[C@@H](NC(=O)[C@H](Cc2c[nH]cn2)NC(=O)[C@@H](NC(=O)[C@H](Cc2nn[nH]n2)NC(=O)CCCN)[C@@H](C)O)C(c2ccccc2)c2ccccc2)CSSC[C@@H](C(N)=O)NC(=O)[C@@H](CCCCN)NC(=O)C[C@H](Cc2ccccc2)NC(=O)[C@H](CCCCNC(=O)COCCOCCNC(=O)COCCOCCNC(=O)CC[C@H](NC(=O)CCCCCCCCCCCCCCCCC(=O)O)C(=O)O)NC1=O	> 500 nM
CC[C@H](C)[C@@H]1NC(=O)[C@@H](NC(=O)[C@@H]2CCCN2C(=O)[C@@H](NC(=O)[C@H](Cc2c[nH]cn2)NC(=O)[C@@H](NC(=O)[C@H](Cc2nn[nH]n2)NC(=O)CC(C)C(F)(F)F)[C@@H](C)O)C(c2ccccc2)c2ccccc2)CSSC[C@@H](C(N)=O)NC(=O)[C@@H](CCCCN)NC(=O)C[C@H](Cc2ccccc2)NC(=O)[C@H](CCCCNC(=O)COCCOCCNC(=O)COCCOCCNC(=O)CC[C@H](NC(=O)CCCCCCCCCCCCCCCCC(=O)O)C(=O)O)NC1=O (stereo partly drawn)	10 to 100 nM
CC[C@H](C)[C@@H]1NC(=O)[C@@H](NC(=O)[C@@H]2CCCN2C(=O)[C@@H](NC(=O)[C@H](Cc2c[nH]cn2)NC(=O)[C@@H](NC(=O)[C@H](Cc2nn[nH]n2)NC(=O)C(C)(C)Br)[C@@H](C)O)C(c2ccccc2)c2ccccc2)CSSC[C@@H](C(N)=O)NC(=O)[C@@H](CCCCN)NC(=O)C[C@H](Cc2ccccc2)NC(=O)[C@H](CCCCNC(=O)COCCOCCNC(=O)COCCOCCNC(=O)CC[C@H](NC(=O)CCCCCCCCCCCCCCCCC(=O)O)C(=O)O)NC1=O	10 to 100 nM
CC[C@H](C)[C@@H]1NC(=O)[C@@H](NC(=O)[C@@H]2CCCN2C(=O)[C@@H](NC(=O)[C@H](Cc2cncn2C)NC(=O)[C@@H](NC(=O)[C@H](CC2N=NN=N2)NC(=O)CC(C)C)[C@@H](C)O)C(c2ccccc2)c2ccccc2)CSSC[C@@H](C(N)=O)NC(=O)[C@@H](CCCCN)NC(=O)C[C@H](Cc2ccccc2)NC(=O)[C@H](CCCCNC(=O)COCCOCCNC(=O)COCCOCCNC(=O)CC[C@H](NC(=O)CCCCCCCCCCCCCCCCC(=O)O)C(=O)O)NC1=O	10 to 100 nM
CC[C@H](C)[C@@H]1NC(=O)[C@@H](NC(=O)[C@@H]2CCCN2C(=O)[C@@H](NC(=O)[C@H](Cc2cnc[nH]2)NC(=O)[C@@H](NC(=O)[C@H](CC2N=NN=N2)NC(=O)c2ccccc2)[C@@H](C)O)C(c2ccccc2)c2ccccc2)CSSC[C@@H](C(N)=O)NC(=O)[C@@H](CCCCN)NC(=O)C[C@H](Cc2ccccc2)NC(=O)[C@H](CCCCNC(=O)COCCOCCNC(=O)COCCOCCNC(=O)CC[C@H](NC(=O)CCCCCCCCCCCCCCCCC(=O)O)C(=O)O)NC1=O	10 to 100 nM
CCCC(=O)N[C@@H](Cc1nn[nH]n1)C(=O)N[C@H](C(=O)N[C@@H](Cc1c[nH]cn1)C(=O)N[C@H](C(=O)N1CCC[C@H]1C(=O)N[C@H]1CSSC[C@@H](C(N)=O)NC(=O)[C@@H](CCCCN)NC(=O)C[C@H](Cc2ccccc2)NC(=O)[C@H](CCCCNC(=O)COCCOCCNC(=O)COCCOCCNC(=O)CC[C@H](NC(=O)CCCCCCCCCCCCCCCCC(=O)O)C(=O)O)NC(=O)[C@H]([C@@H](C)CC)NC1=O)C(c1ccccc1)c1ccccc1)[C@@H](C)O	10 to 100 nM
